System: NCI-H522
Method notes: NCI tumour cell line growth inhibition, 48 h
Activity calls are given as the source filed them. Cut-off read from the data, not from the text of the source: active = GI50 up to about 1.1 µM and inactive = higher.
Listed compounds paired with reported GI50

Guide cases for GI50, answers given:
[
  {
    "Compound": "OCC1C2CCC3(OCCO3)C12 (centres undefined)",
    "GI50": "> 100 µM (inactive)"
  },
  {
    "Compound": "NC(=O)c1csc(C2CCC(CO)O2)n1 (centres undefined)",
    "GI50": "> 100 µM (inactive)"
  },
  {
    "Compound": "CC1CC(=O)C(C(O)CC2CC(=O)N(c3ccccc3)C(=O)C2)C(C)C1 (centres undefined)",
    "GI50": "> 100 µM (inactive)"
  }
]

INPUT: Look up GI50 with NCI-H522 for this compound: CC[n+]1c(/C=C/c2ccc(N(CCCl)CCCl)cc2)ccc2cc(Br)ccc21
OUTPUT: 0.471 µM (active)
